This section presents molecules with their documented inhibition at 10 µM values.
target: ROCK2 protein (Homo sapiens, UniProt O75116); experiment: Degradation inducing activity of ROCK2 protein in HUVEC cells, Western blotting (Simple Western JESS); type: cell-based; parameters: endogenous in cells; host or cells: HUVEC (ATCC CRL-1730); settings: HUVEC, 24 h, degradation rate at 10 µM
Sequence (O75116 whole entry): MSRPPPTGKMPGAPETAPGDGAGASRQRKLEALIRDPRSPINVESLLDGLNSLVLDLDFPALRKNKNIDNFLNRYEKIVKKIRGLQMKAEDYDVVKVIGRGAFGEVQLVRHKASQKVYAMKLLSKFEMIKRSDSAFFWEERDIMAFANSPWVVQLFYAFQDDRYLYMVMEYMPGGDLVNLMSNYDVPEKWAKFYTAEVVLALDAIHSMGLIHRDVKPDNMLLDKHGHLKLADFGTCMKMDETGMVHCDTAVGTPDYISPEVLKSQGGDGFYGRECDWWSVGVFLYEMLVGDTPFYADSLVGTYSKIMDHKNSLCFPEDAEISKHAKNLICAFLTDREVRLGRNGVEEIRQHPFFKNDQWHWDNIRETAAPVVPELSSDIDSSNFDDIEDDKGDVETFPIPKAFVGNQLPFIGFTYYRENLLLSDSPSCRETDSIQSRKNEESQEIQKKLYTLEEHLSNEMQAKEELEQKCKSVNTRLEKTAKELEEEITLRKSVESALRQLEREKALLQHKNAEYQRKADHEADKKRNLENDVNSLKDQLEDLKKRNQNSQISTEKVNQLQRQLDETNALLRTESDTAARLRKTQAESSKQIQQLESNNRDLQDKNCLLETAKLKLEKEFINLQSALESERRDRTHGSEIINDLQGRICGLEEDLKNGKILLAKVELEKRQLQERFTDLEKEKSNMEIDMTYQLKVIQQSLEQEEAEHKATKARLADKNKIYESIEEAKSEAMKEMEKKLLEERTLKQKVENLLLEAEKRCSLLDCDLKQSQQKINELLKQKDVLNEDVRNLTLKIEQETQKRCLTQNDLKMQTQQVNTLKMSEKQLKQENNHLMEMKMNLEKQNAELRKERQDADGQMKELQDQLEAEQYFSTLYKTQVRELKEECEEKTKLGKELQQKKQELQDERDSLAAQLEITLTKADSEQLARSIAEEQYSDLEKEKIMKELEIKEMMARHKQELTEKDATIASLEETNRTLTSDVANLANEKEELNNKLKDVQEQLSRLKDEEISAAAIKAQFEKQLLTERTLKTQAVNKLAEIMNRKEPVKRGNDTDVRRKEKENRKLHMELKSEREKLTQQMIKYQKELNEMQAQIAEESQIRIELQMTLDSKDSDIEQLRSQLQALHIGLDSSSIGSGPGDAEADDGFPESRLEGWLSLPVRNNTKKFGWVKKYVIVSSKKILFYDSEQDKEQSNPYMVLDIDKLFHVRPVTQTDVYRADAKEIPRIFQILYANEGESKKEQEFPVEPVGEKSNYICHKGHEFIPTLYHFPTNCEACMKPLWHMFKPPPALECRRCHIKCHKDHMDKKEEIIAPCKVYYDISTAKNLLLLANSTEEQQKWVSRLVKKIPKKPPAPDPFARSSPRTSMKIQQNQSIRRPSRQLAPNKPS

>  <structureNotation>
COC[C@H]1CN[C@H](C)CN1CC(=O)N1CC(C)(C)c2ncc(Cc3cccc(OCCOCCOCCOCCN[C@H](Cc4cccc(F)c4)C(=O)Nc4ccc(-c5ccncc5)cc4)c3)cc21

>  <inhibition at 10 µM>
50 to 75%

$$$$

Just so you know, measured inhibition at 10 µM for COC[C@H]1CN[C@H](C)CN1CC(=O)N1CC(C)(C)c2ncc(Cc3ccccc3OCCOCCOCCOCCOCCOCCOCCN[C@H](C)c3ccc(C(=O)Nc4ccncc4)cc3)cc21 came out at ≥ 75%

Just so you know, measured inhibition at 10 µM for COC[C@H]1CN[C@H](C)CN1CC(=O)N1CC(C)(C)c2ncc(Cc3cccc(OCCOCCOCCOCCOCCOCCNC[C@@H](C(=O)Nc4ccc5cnccc5c4)c4ccccc4)c3)cc21 came out at ≥ 75%

Just so you know, measured inhibition at 10 µM for C[C@@H]1CN(CC(=O)N2CC(C)(C)c3ncc(Cc4ccc(F)cc4)cc32)[C@@H](CN(C)CCOCCOCCOCCOCCOCCN[C@H](C)c2ccc(C(=O)Nc3ccncc3)cc2)CN1 came out at < 25%

Just so you know, measured inhibition at 10 µM for C[C@@H]1CN(CC(=O)N2CC(C)(C)c3ncc(Cc4ccc(F)cc4)cc32)[C@@H](CN(C)CCOCCOCCOCCOCCN[C@H](C)c2ccc(C(=O)Nc3ccncc3)cc2)CN1 came out at ≥ 75%

Just so you know, measured inhibition at 10 µM for C[C@@H]1CN(CC(=O)N2CC(C)(C)c3ncc(Cc4ccc(F)cc4)cc32)[C@@H](CN(C)CCOCCOCCOCCOCCN[C@H](Cc2cccc(F)c2)C(=O)Nc2ccc(-c3ccncc3)cc2)CN1 came out at ≥ 75%
